Tested on: Fibroblast
Assay: Multiplex assay against human fibroblast
Type: toxicity, cell-based
Details: 12 h, 10 µM, compound concentration 10 uM, replicate 1
MEASURED_PROPERTY: Population Membrane Permeable-Phenotype (%)
Lab note: write values as number then unit, every time.

Consider the reported Population Membrane Permeable-Phenotype (%) for these molecules:
COC(=N)c1nc2ccc3ncnc(Nc4ccc(OC)cc4F)c3c2s1	7%
O=C(Nc1ccc(-n2nc(-c3cccnc3)cc2C(F)(F)F)cn1)c1ccc(-c2ccccc2)c(F)c1 [BI 2049]	22%

Prompt line: Which measured Population Membrane Permeable-Phenotype (%) value corresponds to CN1CCN(C(=O)C(C)(C)c2ccc(C(=O)Nc3cn4cc(-c5cc(C(C)(C)C)cc(C(C)(C)C)c5)ccc4n3)cc2)CC1 [T3-CLK-N] ?
Response line: 23%

Prompt line: Let us now turn to S=C(NCCCc1c[nH]cn1)NCCCN(Cc1ccc(Cl)c(Cl)c1)c1ccc(Br)cn1
Response line: 66%

Prompt line: Let us now turn to CCOc1cc2ncc(C#N)c(Nc3ccc(OCc4ccccn4)c(Cl)c3)c2cc1NC(=O)/C=C/CN(C)C [NERATINIB]
Response line: 7%

Prompt line: Let us now turn to CCCS(=O)(=O)c1nc(NC2CC2)cc(-c2ccc3c(ccn3C3CC(C)(C)NC(C)(C)C3)c2)n1
Response line: 60%

Prompt line: Let us now turn to O=C(Cc1ccc(-c2ccc(OCCN3CCOCC3)cc2)cn1)NCc1ccccc1 [TIRBANIBULIN]
Response line: 17%

Prompt line: Let us now turn to CCCn1c(=O)c2[nH]c(-c3cnn(Cc4cccc(C(F)(F)F)c4)c3)nc2n(CC)c1=O [GS 6201]
Response line: 25%

Prompt line: Let us now turn to Cc1ccc2nc(NCCN)c3ncc(C)n3c2c1.O=C(O)C(F)(F)F.O=C(O)C(F)(F)F
Response line: 5%

Prompt line: Let us now turn to Cl.O=c1c2cccn2c2ccccc2n1CCCN1CCC(c2ccc(Cl)cc2)CC1
Response line: 5%
